targetEntity: AXL (human catalytic domain) (Homo sapiens, UniProt P30530)
Construct: purchased Upstate Ltd. 14-512
Sequence (P30530 473-894): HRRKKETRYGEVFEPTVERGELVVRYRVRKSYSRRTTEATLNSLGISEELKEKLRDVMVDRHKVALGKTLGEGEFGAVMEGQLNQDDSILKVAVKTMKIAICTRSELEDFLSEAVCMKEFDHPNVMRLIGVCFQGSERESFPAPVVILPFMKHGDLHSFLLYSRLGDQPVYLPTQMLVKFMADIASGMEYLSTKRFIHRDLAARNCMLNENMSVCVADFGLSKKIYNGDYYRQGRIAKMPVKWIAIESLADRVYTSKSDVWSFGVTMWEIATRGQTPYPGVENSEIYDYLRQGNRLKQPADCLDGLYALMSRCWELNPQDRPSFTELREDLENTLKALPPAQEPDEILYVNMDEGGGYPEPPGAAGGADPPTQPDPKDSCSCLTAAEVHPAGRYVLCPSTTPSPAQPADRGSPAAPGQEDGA
assayExplanation: AXL (human catalytic domain) Enzyme Activity Assay (IMAP fluorescence polarisation)
Format: biochemical
settings: first data set; recombinant AXL isoform 1 aa473-894, 150 μM ATP
resultType: IC50

Answered examples (2):
| molecule | targetEntity | resultType | result |
| --- | --- | --- | --- |
| c1cc(-c2ccc3c(c2)OCCO3)n2nc(Nc3ccc(OCCN4CCCC4)cc3)nc2c1 [XX-018] | AXL (human catalytic domain) (Homo sapiens, UniProt P30530) | IC50 | < 1000 nM |
| Cc1ccc(-c2cccc3nc(NC(=O)C4CC4)nn23)s1 [WW-055] | AXL (human catalytic domain) (Homo sapiens, UniProt P30530) | IC50 | 1000 to 10000 nM |

Could you share which IC50 value was measured for COc1cc(Nc2nc3cccc(-c4ccc5c(c4)OCCO5)n3n2)ccc1OCCN1CCCC1 [XX-001] ?
< 1000 nM

Could you share which IC50 value was measured for Cc1cc(-c2cccc3nc(NC(=O)C4CC4)nn23)cc(C)c1O [WW-008] ?
1000 to 10000 nM

Could you share which IC50 value was measured for Cc1ccc(-c2cccc3nc(NC(=O)C4CC4)nn23)cc1 [WW-047] ?
< 1000 nM
